Values from the supplement of paper PMC10567573

B1: ATE1 (parent)
chain: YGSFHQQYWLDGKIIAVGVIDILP

- Variants of: B1
- testName: protein stability index of a GFP-peptide fusion (GPS, HEK-293T) (PSI 1-6); higher = more stable;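 also: lentivirally expressed fusions sorted by FACS into six bins by GFP to DsRed ratio, PSI derived from sequencing read proportions per bin multiplied by bin number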
- conditionDescription: c terminus: a fixed tail appended
Threshold rule: protein stability index greater than or equal to 3 is TRUE; below that, FALSE.

| residues | qualitativeLabel |
| --- | --- |
| YGSFHQQYILDGKIIAVGVIDILP [W9I] | TRUE |
| YESFHQQYWLDGKIIAVGVIDILP [G2E] | FALSE |
| YGSFHQQYWLDGKIIAVGVIDITP [L23T] | FALSE |
| YGSQHQQYWLDGKIIAVGVIDILP [F4Q] | FALSE |
| YGSFHQQYWLDGKIIAVGVIDQLP [I22Q] | FALSE |
| YGSFHQQYWLDGKIIAVGVICILP [D21C] | TRUE |
| YGSFHQQYWLPGKIIAVGVIDILP [D11P] | FALSE |
| YGSFHQQYWLDGKIIRVGVIDILP [A16R] | TRUE |
| YGSFHQQHWLDGKIIAVGVIDILP [Y8H] | FALSE |
| YGSFHQQYWLDGKIIAVGVADILP [I20A] | TRUE |
| YGSFHQMYWLDGKIIAVGVIDILP [Q7M] | FALSE |
| YGSFHQQYWLDGKIVAVGVIDILP [I15V] | TRUE |
| YGSFHQQYWTDGKIIAVGVIDILP [L10T] | FALSE |
| YGSFHQQYWLDDKIIAVGVIDILP [G12D] | FALSE |
| YGSFHQQYWPDGKIIAVGVIDILP [L10P] | TRUE |
